Just for reference, paper PMC2756588 is where these values come from.

# tested-target: T1, Lsb3, P43603
# T1 sequence (P43603 385-451, looked up): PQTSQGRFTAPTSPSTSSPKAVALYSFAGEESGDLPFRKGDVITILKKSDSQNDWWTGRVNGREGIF
# protocol: SPOT array
# condition-info: median of control spots 406
Hi there, I'd appreciate the recorded SPOT intensity for every entry that follows.
I'd appreciate a reply containing only the number, no unit.

Q: Return reported SPOT intensity; argument: `RPVPPPPPMRTTTEG`
Result: 0

Q: Look at this binder and give its reported SPOT intensity. `GDHPKGPPPPPPPPD`
Result: 0

Q: I have this binder here, `NFKRLLPRDPSEKSS` , and I need its recorded SPOT intensity.
Result: 0

Q: Entry under review: `AHFQPQRTAPKPPIS` . Reported SPOT intensity?
Result: 0

Q: Please report the recorded SPOT intensity for `KKIRLIFTYPSTVGR` .
Result: 20

Q: Given the entry `PKMLPIPSKPTLFDL` , report its measured SPOT intensity.
Result: 15

Q: Return reported SPOT intensity; argument: `NGRRRPKFRVQLSGN`
Result: 8
